// provenance: patent US20260109699A1

# pIC50 per entry
System: phospho-ERK1/2 (Thr202/Tyr204)
testDescription: Phospho-ERK cellular assay
Assay type: cell-based
assaySetup: Homo sapiens; KYSE-520 cells, 2 h at 37° C, TR-FRET; read-out: pERK IC50
pIC50: −log10 of the molar value.
assayMetric: pIC50

compound	result
N[C@@H]1c2ccnn2CC12CCN(c1cnc(Sc3ccc(C(F)F)cc3F)cn1)CC2 [Example 59]	6.30 to 7.00
Cc1ccccc1Sc1cnc(N2CCC3(CC2)Cn2nccc2[C@H]3N)cn1 [Example 26]	> 7.00
N[C@@H]1c2ccnn2CC12CCN(c1cnc(Sc3cccc(-n4cccn4)c3Cl)cn1)CC2 [Example 10]	> 7.00
N[C@@H]1c2ccnn2CC12CCN(c1cnc(Sc3ccnc(C(F)(F)F)c3Cl)cn1)CC2 [Example 54]	> 7.00

----------
// IC50 lookup, one value per entry
Tested on: phospho-ERK1/2 (Thr202/Tyr204)
testDescription: Phospho-ERK cellular assay
Assay type: cell-based
assaySetup: Homo sapiens; KYSE-520 cells, 2 h at 37° C, TR-FRET; read-out: pERK IC50

compoundString	IC50
N[C@@H]1c2ccnn2CC12CCN(c1cnc3nc(-c4cccc(F)c4F)ccc3n1)CC2	> 500 nM
Cn1cc2c(Cl)c(Sc3cnc(N4CCC5(CC4)Cn4nccc4[C@H]5N)cn3)ccc2n1	< 100 nM
N[C@@H]1c2ccnn2CC12CCN(c1cnc(Sc3c(F)cccc3F)cn1)CC2	< 100 nM
N[C@@H]1c2ccnn2CC12CCN(c1cnc(Sc3ccccc3F)cn1)CC2	< 100 nM

----------
measuredOn: SHP-2 enzyme (Met1-Leu525), SHP2wt (Homo sapiens)
Construct: synthetized by Origene, Met1-Leu525, cat #TP750155
Sequence (Q06124 1-525): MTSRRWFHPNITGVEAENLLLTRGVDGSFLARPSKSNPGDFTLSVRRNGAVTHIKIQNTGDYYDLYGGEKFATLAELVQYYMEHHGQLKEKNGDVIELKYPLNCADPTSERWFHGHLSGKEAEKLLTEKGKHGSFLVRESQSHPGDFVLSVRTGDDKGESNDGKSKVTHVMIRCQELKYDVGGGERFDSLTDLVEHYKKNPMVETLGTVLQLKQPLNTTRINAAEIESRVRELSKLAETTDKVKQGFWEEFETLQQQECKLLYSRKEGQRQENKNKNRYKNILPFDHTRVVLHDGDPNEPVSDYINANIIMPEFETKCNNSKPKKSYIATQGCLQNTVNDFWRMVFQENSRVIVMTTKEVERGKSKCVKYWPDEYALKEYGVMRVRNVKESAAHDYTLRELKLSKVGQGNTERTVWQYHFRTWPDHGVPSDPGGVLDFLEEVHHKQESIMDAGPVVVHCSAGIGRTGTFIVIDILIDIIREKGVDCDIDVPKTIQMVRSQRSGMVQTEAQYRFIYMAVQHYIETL
testDescription: SHP2 inhibition enzymatic assay
assaySetup: 0.5 nM SHP-2 activated by 500 nM IRS1 peptide, 75 μM DiFMUP substrate
Method: The assay was performed as described in YP Chen et al, Nature (535) 2016. […] Briefly, DMSO serially diluted testing compounds were transferred to the bottom of the assay plate. […] The fluorescence was detected by a microplate reader (Envision, PerkinElmer) according to the DiFMUP excitation and emission wavelength. The lower the fluorescence the higher the SHP2 inhibition. […]
pIC50: −log10 of the molar value.
Attribute: pIC50
assayMetric: pIC50

compound	assayMetric	result
N[C@@H]1c2cccn2CC12CCN(c1cnc(Sc3cccc(Cl)c3Cl)cn1)CC2 [Example 28]	pIC50	≥ 7.30
N[C@@H]1c2ccnn2CC12CCN(c1cnc(Oc3ccc(Cl)cc3F)cn1)CC2 [Example 79]	pIC50	≥ 7.30
N[C@@H]1c2ccnn2CC12CCN(c1cnc(Sc3cccc(F)c3)cn1)CC2 [Example 51]	pIC50	≥ 7.30
N[C@@H]1c2ccnn2CC12CCN(c1cnc(Sc3cccc(-n4ccnc4)c3Cl)cn1)CC2 [Example 44]	pIC50	≥ 7.30
Cc1c(Cl)cncc1Sc1cnc(N2CCC3(CC2)Cn2nccc2[C@H]3N)cn1 [Example 62]	pIC50	≥ 7.30
Cc1cc(Cl)ccc1Sc1cnc(N2CCC3(CC2)Cn2nccc2[C@H]3N)cn1 [Example 40]	pIC50	≥ 7.30
N[C@@H]1c2ccnn2CC12CCN(c1cnc(Sc3cccc4ncccc34)cn1)CC2 [Example 61]	pIC50	≥ 7.30
N[C@@H]1c2ccnn2CC12CCN(c1cnc(Sc3ccc(C(F)(F)F)cc3)cn1)CC2 [Example 19]	pIC50	≥ 7.30

----------
Test system: phospho-ERK1/2 (Thr202/Tyr204)
testDescription: Phospho-ERK cellular assay
Assay type: cell-based
assaySetup: Homo sapiens; KYSE-520 cells, 2 h at 37° C, TR-FRET; read-out: pERK IC50
This section presents molecules with their documented IC50 values.

molecule	IC50
N#Cc1ccc(Sc2cnc(N3CCC4(CC3)Cn3nccc3[C@H]4N)cn2)c2cccnc12 [Example 66]	< 100 nM
N[C@@H]1c2ccnn2CC12CCN(c1cnc(Oc3cccc(Cl)c3Cl)cn1)CC2 [Example 2]	100 to 500 nM
N[C@@H]1c2ccnn2CC12CCN(c1cnc(-c3cccc(Cl)c3Cl)cn1)CC2 [Example 31]	> 500 nM
N[C@@H]1c2ccnn2CC12CCN(c1cnc(Sc3ccccc3Cl)cn1)CC2 [Example 63]	< 100 nM
N[C@@H]1c2ccnn2CC12CCN(c1cnc(Sc3cccc(Cl)c3)cn1)CC2 [Example 20]	< 100 nM
Cc1cccc(-c2ncc3c(N4CCC5(CC4)Cn4nccc4[C@H]5N)nccn23)c1F [Example 12]	100 to 500 nM
N[C@@H]1c2ccnn2CC12CCN(c1cnc(Sc3ccc(Cl)cc3Cl)cn1)CC2 [Example 22]	< 100 nM
N[C@@H]1c2ccnn2CC12CCN(c1cnc(Sc3cccc(-n4cccn4)c3F)cn1)CC2 [Example 81]	< 100 nM
N[C@@H]1c2ccnn2CC12CCN(c1cnc(Sc3cccc(C(F)F)c3F)cn1)CC2 [Example 58]	< 100 nM
Cc1cccc(Sc2cnc(N3CCC4(CC3)Cn3nccc3[C@H]4N)cn2)c1Cl [Example 35]	< 100 nM
Cc1c(F)cccc1Sc1cnc(N2CCC3(CC2)Cn2nccc2[C@H]3N)cn1 [Example 57]	< 100 nM
N[C@@H]1c2ccnn2CC12CCN(c1cnc(Sc3ccc(F)cc3)cn1)CC2 [Example 13]	< 100 nM
N#Cc1cccc(Sc2cnc(N3CCC4(CC3)Cn3nccc3[C@H]4N)cn2)c1C(F)(F)F [Example 43]	< 100 nM
N[C@@H]1c2c(F)ccn2CC12CCN(c1cnc(Sc3cccc(Cl)c3Cl)cn1)CC2 [Example 29]	< 100 nM
Cc1nc(N2CCC3(CC2)Cn2nccc2[C@H]3N)cnc1Sc1ccnc(C)c1F [Example 4]	100 to 500 nM
N[C@@H]1c2ccnn2CC12CCN(c1cnc(Sc3ccc(OC(F)F)c4ncccc34)cn1)CC2 [Example 73]	< 100 nM
N#Cc1ccc(Sc2cnc(N3CCC4(CC3)Cn3nccc3[C@H]4N)cn2)c(F)c1 [Example 76]	< 100 nM
N[C@@H]1c2ccnn2CC12CCN(c1cnc(Sc3cc(F)c(F)cc3F)cn1)CC2 [Example 77]	100 to 500 nM
N[C@@H]1c2ccnn2CC12CCN(c1cnc(Sc3cccc(F)c3Cl)cn1)CC2 [Example 30]	< 100 nM
N[C@@H]1c2ccnn2CC12CCN(c1cnc(Sc3ccc4c(c3)CCO4)cn1)CC2 [Example 42]	< 100 nM
N[C@@H]1c2ccnn2CC12CCN(c1cnc(Sc3cc(C(F)F)ccc3F)cn1)CC2 [Example 74]	100 to 500 nM
Cn1cc2ccc(Sc3cnc(N4CCC5(CC4)Cn4nccc4[C@H]5N)cn3)c(F)c2n1 [Example 83]	< 100 nM
Cn1c(N2CCC3(CC2)Cn2nccc2[C@H]3N)ncc(-c2cccc(F)c2F)c1=O [Example 5]	> 500 nM
Cc1nc(N2CCC3(CC2)Cn2nccc2[C@H]3N)cnc1Sc1cccc(Cl)c1Cl [Example 6]	100 to 500 nM
N[C@@H]1c2ccnn2CC12CCN(c1cnc(Sc3cccc4c3CCO4)cn1)CC2 [Example 38]	100 to 500 nM
N[C@@H]1c2ccnn2CC12CCN(c1nccn3c(-c4cccc(F)c4Cl)ncc13)CC2 [Example 14]	100 to 500 nM
N[C@@H]1c2ccnn2CC12CCN(c1cnc(Sc3ccccc3C(F)(F)F)cn1)CC2 [Example 41]	< 100 nM
N[C@@H]1c2ccnn2CC12CCN(c1cnc(Sc3cccc(-n4ccnc4)c3Cl)cn1)CC2 [Example 44]	< 100 nM
N[C@@H]1c2ccnn2CC12CCN(c1cnc(Sc3cccc(-n4ccnc4C(F)F)c3Cl)cn1)CC2 [Example 82]	< 100 nM
N[C@@H]1c2ccnn2CC12CCN(c1cnc(Sc3ccc(F)cc3Cl)cn1)CC2 [Example 34]	< 100 nM
N[C@@H]1c2ccnn2CC12CCN(c1cnc(Sc3ccc(OC(F)(F)F)cc3)cn1)CC2 [Example 18]	100 to 500 nM
N[C@@H]1c2ccnn2CC12CCN(c1cnc(Sc3cccc(F)c3F)cn1)CC2 [Example 53]	< 100 nM
N[C@@H]1c2ccnn2CC12CCN(c1cnc(Sc3cccc(F)c3C(F)F)cn1)CC2 [Example 71]	< 100 nM

----------
System: phospho-ERK1/2 (Thr202/Tyr204)
testDescription: Phospho-ERK cellular assay
Assay type: cell-based
assaySetup: Homo sapiens; KYSE-520 cells, 2 h at 37° C, TR-FRET; read-out: pERK IC50
The following molecules are listed with their measured IC50 values.

molecule	IC50
N[C@@H]1c2ccnn2CC12CCN(c1cnc(Sc3cccc4c3CCC4)cn1)CC2	< 0.1 µM
CC(C)c1ccccc1Sc1cnc(N2CCC3(CC2)Cn2nccc2[C@H]3N)cn1	< 0.1 µM
Cc1nc(N2CCC3(CC2)Cn2ncc(F)c2[C@H]3N)cc(=O)n1-c1cccc(Cl)c1Cl (atropisomer, axis not shown)	0.1 to 0.5 µM
Cc1cccc(Sc2cnc(N3CCC4(CC3)Cn3nccc3[C@H]4N)cn2)c1F	< 0.1 µM
N[C@@H]1c2ccnn2CC12CCN(c1cnc(Sc3cccc(Cl)c3C(F)(F)F)cn1)CC2	< 0.1 µM
N[C@@H]1c2ccnn2CC12CCN(c1cnc(Sc3cccc4c3COC4)cn1)CC2	< 0.1 µM
N[C@@H]1c2ccnn2CC12CCN(c1cnc(Sc3ccccc3C(F)F)cn1)CC2	< 0.1 µM
Cc1c(F)ccc(Sc2cnc(N3CCC4(CC3)Cn3nccc3[C@H]4N)cn2)c1F	< 0.1 µM
Cc1ccc(F)c(-c2ncc3c(N4CCC5(CC4)Cn4nccc4[C@H]5N)nccn23)c1Cl	> 0.5 µM
N[C@@H]1c2ccnn2CC12CCN(c1cnc(Oc3ccc(Cl)cc3F)cn1)CC2	0.1 to 0.5 µM
Cc1c(N2CCC3(CC2)Cn2nccc2[C@H]3N)nc(C)n(-c2cccc(Cl)c2Cl)c1=O (single isomer, unassigned)	< 0.1 µM
N[C@@H]1c2ccnn2CC12CCN(c1cnc(Sc3cccc4ncccc34)cn1)CC2	< 0.1 µM
N[C@@H]1c2ccnn2CC12CCN(c1cnc(Sc3ccc(F)c4ncccc34)cn1)CC2	< 0.1 µM
N[C@@H]1c2ccnn2CC12CCN(c1cnc(Sc3ccc(Cl)c(Cl)c3)cn1)CC2	0.1 to 0.5 µM
Cn1c(N2CCC3(CC2)Cn2nccc2[C@H]3N)ccc(-c2cccc(Cl)c2Cl)c1=O	> 0.5 µM
N[C@@H]1c2ccnn2CC12CCN(c1cnc(Sc3ccc(C(F)(F)F)c4ncccc34)cn1)CC2	< 0.1 µM
